Target Under Test: human GHSR1a (Homo sapiens)
Construct: expressed in transfected cells; host or cells: HEK293 Tetracycline-Inducible cell line, used as membranes
Protocol Text: Human Ghrelin SPA Binding Assay
pIC50: −log10 of the molar value.
Value Kind: pIC50

Cc1ccc(CC(=O)N2CCC3(CC2)CN([C@@H]2CCc4cc(-c5ccn(C)n5)ccc42)C3)nc1: 7.28

[1] CCc1ccc(CC(=O)N2CCC3(CC2)CN([C@@H]2CCc4cc(-c5ncccn5)ccc42)C3)nc1
[2] COc1ccc(CC(=O)N2CCC3(CC2)CN(C2CCc4cc(-c5ccc(C)cn5)ccc42)C3)nc1 (racemic)
// which entry has the larger pIC50 value, 1 or 2 ? Use the label to indicate which entry you chose.
1
(1: 7.94, 2: 7.67)

###

Target Under Test: human GHSR1a (Homo sapiens)
Construct: expressed in transfected cells; host or cells: HEK293 Tetracycline-Inducible cell line, used as membranes
Protocol Text: Human Ghrelin SPA Binding Assay
Value Kind: IC50 (nM)

NC(=O)c1ccc(-c2ccc3c(c2)CC[C@H]3N2CC3(CCN(C(=O)Cc4cn5ccccc5n4)CC3)C2)cn1: 33.7

[A] NC(=O)c1ccc(-c2ccc3c(c2)CC[C@H]3N2CC3(CCN(C(=O)Cc4cn5ccccc5n4)CC3)C2)cc1
[B] COc1ccc(CC(=O)N2CCC3(CC2)CN([C@@H]2CCc4cc(-c5ccc(C(N)=O)cc5)ccc42)C3)nc1
[C] Cc1cn2cc(CC(=O)N3CCC4(CC3)CN([C@@H]3CCc5cc(-n6nccn6)ccc53)C4)nc2s1
Ordering criterion: IC50; begin with the maximum. Rank them, then answer with their labels in that order.
A, B, C

###

Target Under Test: human GHSR1a (Homo sapiens)
Construct: expressed in transfected cells; host or cells: HEK293 Tetracycline-Inducible cell line, used as membranes
Protocol Text: Human Ghrelin SPA Binding Assay
pKi: −log10 of the molar value.
Value Kind: pKi

Completed entries (count: 6):
O=C(Cc1ccc2c(n1)OCCO2)N1CCC2(CC1)CN([C@@H]1CCc3cc(-c4ncccn4)ccc31)C2: 7.65
CCn1ccc(CC(=O)N2CCC3(CC2)CN([C@@H]2CCc4cc(-c5ncccn5)ccc42)C3)n1: 6.92
COc1ccc(CC(=O)N2CCC3(CC2)CN([C@@H]2CCc4cc(-c5cc(C#N)ncn5)ccc42)C3)nc1: 7.47
Cc1nccc(-c2ccc3c(c2)CC[C@H]3N2CC3(CCN(C(=O)Cc4ccc5c(n4)OCCO5)CC3)C2)n1: 7.73
COc1ccc(CC(=O)N2CCC3(CC2)CN([C@@H]2CCc4cc(-n5cccn5)ccc42)C3)nc1: 7.18
COc1ccc(CC(=O)N2CCC3(CC2)CN([C@@H]2CCc4cc(-c5ccncn5)ccc42)C3)nc1: 7.16

[I] O=C(Cc1ccc(C(F)F)cn1)N1CCC2(CC1)CN([C@@H]1CCc3cc(-c4ncccn4)ccc31)C2
[II] COc1ccc(CC(=O)N2CCC3(CC2)CN(C2CCc4cc(-c5cc(OC)ncn5)ccc42)C3)nc1 (racemic)
[III] COc1ccc(CC(=O)N2CCC3(CC2)CN([C@@H]2CCc4cc(-c5nnc(C)s5)ccc42)C3)nc1
Ordering criterion: pKi; begin with the maximum. Rank them, then answer with their labels in that order.
II, III, I

[1] O=C(Cc1ccc(C(F)(F)F)cc1)N1CCC2(CC1)CN([C@@H]1CCc3cc(-c4ncccn4)ccc31)C2
[2] CCc1cc(-c2ccc3c(c2)CC[C@H]3N2CC3(CCN(C(=O)Cc4ccc(OC)cn4)CC3)C2)ncn1
// which entry has the larger pKi value, 1 or 2 ? Use the label to indicate which entry you chose.
2

[I] NC(=O)c1ccc(-c2ccc3c(c2)CC[C@H]3N2CC3(CCN(C(=O)Cc4cn5ccccc5n4)CC3)C2)cn1
[II] COc1ccc(CC(=O)N2CCC3(CC2)CN([C@@H]2CCc4cc(-c5ncco5)ccc42)C3)cc1
[III] COc1ccc(CC(=O)N2CCC3(CC2)CN(C2CCc4cc(-c5ccc(OC)cn5)ccc42)C3)nc1 (stereo not drawn)
Ordering criterion: pKi; begin with the maximum. Rank them, then answer with their labels in that order.
II, I, III

###

Target Under Test: human GHSR1a (Homo sapiens, UniProt Q92847)
Construct: expressed in transfected cells; host or cells: HEK293 Tetracycline-Inducible cell line, used as membranes
Sequence (Q92847 whole entry): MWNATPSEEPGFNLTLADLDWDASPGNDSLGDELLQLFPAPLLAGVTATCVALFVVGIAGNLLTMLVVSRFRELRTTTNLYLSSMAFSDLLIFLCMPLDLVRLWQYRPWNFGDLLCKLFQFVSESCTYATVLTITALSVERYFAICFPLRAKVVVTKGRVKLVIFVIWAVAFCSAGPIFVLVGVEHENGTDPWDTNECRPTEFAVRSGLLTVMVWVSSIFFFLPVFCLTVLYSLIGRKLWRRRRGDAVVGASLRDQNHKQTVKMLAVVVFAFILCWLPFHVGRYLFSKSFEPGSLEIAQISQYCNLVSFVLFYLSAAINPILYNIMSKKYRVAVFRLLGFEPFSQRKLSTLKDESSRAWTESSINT
Protocol Text: Human Ghrelin SPA Binding Assay
Value Kind: Ki (nM)

Cc1ccnc(-c2ccc3c(c2)CC[C@H]3N2CC3(CCN(C(=O)Cc4cn5nc(C)sc5n4)CC3)C2)n1: 25.9
Cc1ccc(CC(=O)N2CCC3(CC2)CN([C@@H]2CCc4cc(-c5ccc(C(N)=O)nc5)ccc42)C3)nc1: 102

[a] Cc1ccn2cc(CC(=O)N3CCC4(CC3)CN([C@@H]3CCc5cc(-c6cc(C#N)ncn6)ccc53)C4)nc2c1
[b] Cc1ccn2cc(CC(=O)N3CCC4(CC3)CN([C@@H]3CCc5cc(-c6cc(C(N)=O)ncn6)ccc53)C4)nc2c1 [Example 10G]
For the pair a and b , which member has the lower Ki number? Use the label to indicate which entry you chose.
a

###

Target Under Test: human GHSR1a (Homo sapiens, UniProt Q92847)
Construct: expressed in transfected cells; host or cells: HEK293 Tetracycline-Inducible cell line, used as membranes
Protocol Text: Human Ghrelin SPA Binding Assay
Value Kind: IC50 (µM)

Completed entries (count: 8):
Cc1cc(-c2ccc3c(c2)CC[C@H]3N2CC3(CCN(C(=O)Cc4cn5nccnc5n4)CC3)C2)ncn1: 0.495
COc1ccc(CC(=O)N2CCC3(CC2)CN([C@@H]2CCc4cc(-c5cc(OC)ncn5)ccc42)C3)nc1: 0.0207
COc1ccc(CC(=O)N2CCC3(CC2)CN(C2CCc4cc(-c5cc(C#N)ccn5)ccc42)C3)nc1 (racemic): 0.0137
COc1ccc(CC(=O)N2CCC3(CC2)CN(C2CCc4cc(-c5cc(OC)ncn5)ccc42)C3)nc1 (racemic): 0.0359
COc1ccc(CC(=O)N2CCC3(CC2)CN(C2CCc4cc(-c5nc(C)cc(C)n5)ccc42)C3)nc1 (racemic): 0.0153
CCc1cnc(-c2ccc3c(c2)CC[C@H]3N2CC3(CCN(C(=O)Cc4ccc(OC)cn4)CC3)C2)nc1: 0.00946
Cc1ccn2cc(CC(=O)N3CCC4(CC3)CN([C@@H]3CCc5cc(-c6ncccn6)ccc53)C4)nc2c1: 0.0366
Cc1ccc(CC(=O)N2CCC3(CC2)CN([C@@H]2CCc4cc(-c5ccc(C(N)=O)nc5)ccc42)C3)nc1: 0.117

[1] O=C(Cc1ccc(C(F)F)cn1)N1CCC2(CC1)CN([C@@H]1CCc3cc(-c4ncccn4)ccc31)C2
[2] COc1ccc(CC(=O)N2CCC3(CC2)CN([C@@H]2CCc4cc(-c5ccc(C(N)=O)cn5)ccc42)C3)nc1 [Example 11A]
For the pair 1 and 2 , which member has the lower IC50 number? Use the label to indicate which entry you chose.
2
(2: 0.0333 µM, 1: 0.949 µM)

[1] Cc1cc(-c2ccc3c(c2)CC[C@H]3N2CC3(CCN(C(=O)Cc4cn5nc(C)sc5n4)CC3)C2)nc(C)n1
[2] COc1ccc(CC(=O)N2CCC3(CC2)CN(C2CCc4cc(-c5nccc(C)n5)ccc42)C3)cc1 (stereo not shown)
// which entry has the larger IC50 value, 1 or 2 ? Use the label to indicate which entry you chose.
1
(1: 0.0168 µM, 2: 0.00525 µM)

[1] COc1ccc(CC(=O)N2CCC3(CC2)CN([C@@H]2CCc4cc(-c5cc(C(N)=O)ncn5)ccc42)C3)nc1 [Example 10D]
[2] CCOc1ccc(CC(=O)N2CCC3(CC2)CN([C@@H]2CCc4cc(-n5nccn5)ccc42)C3)nc1
[3] Cc1cnc(-c2ccc3c(c2)CC[C@H]3N2CC3(CCN(C(=O)Cc4cn5nc(C)sc5n4)CC3)C2)nc1
Ascending by IC50, please. Rank them, then answer with their labels in that order.
3, 2, 1

[A] COc1ccc(CC(=O)N2CCC3(CC2)CN([C@@H]2CCc4cc(-c5ccnc(C)n5)ccc42)C3)nc1
[B] Cc1cc(-c2ccc3c(c2)CC[C@H]3N2CC3(CCN(C(=O)Cc4cn5ccccc5n4)CC3)C2)ncn1
For the pair A and B , which member has the lower IC50 number? Use the label to indicate which entry you chose.
B
(B: 0.023 µM, A: 0.0995 µM)

[1] Cc1ccc(CC(=O)N2CCC3(CC2)CN([C@@H]2CCc4cc(-c5ncccn5)ccc42)C3)nc1
[2] Cc1cc(C)nc(-c2ccc3c(c2)CC[C@H]3N2CC3(CCN(C(=O)Cc4cn5nc(C)sc5n4)CC3)C2)n1
[3] CCc1cnc(-c2ccc3c(c2)CC[C@H]3N2CC3(CCN(C(=O)Cc4ccc(OC)cc4)CC3)C2)nc1
[4] Cc1ccc(CC(=O)N2CCC3(CC2)CN([C@@H]2CCc4cc(-c5nccc(C)n5)ccc42)C3)nc1
[5] CCc1ccc(CC(=O)N2CCC3(CC2)CN([C@@H]2CCc4cc(-c5ccc(C(N)=O)cc5)ccc42)C3)nc1
Ascending by IC50, please. Rank them, then answer with their labels in that order.
2, 3, 1, 5, 4
(2: 0.00773 µM, 3: 0.0172 µM, 1: 0.031 µM, 5: 0.0493 µM, 4: 0.0824 µM)

[A] COc1ccc(CC(=O)N2CCC3(CC2)CN([C@@H]2CCc4cc(-c5cc(C)nc(C)n5)ccc42)C3)nc1
[B] Cc1ccn2cc(CC(=O)N3CCC4(CC3)CN([C@@H]3CCc5cc(-c6cnc(C(N)=O)cn6)ccc53)C4)nc2c1 [Example 10B]
// which entry has the larger IC50 value, A or B ? Use the label to indicate which entry you chose.
A

[a] COc1ccc(CC(=O)N2CCC3(CC2)CN(C2CCc4cc(-c5ncc(C)cn5)ccc42)C3)cc1 (racemic)
[b] CCc1ccc(CC(=O)N2CCC3(CC2)CN([C@@H]2CCc4cc(-c5ncccn5)ccc42)C3)cc1
[c] O=C(Cc1cc2n(n1)CCCC2)N1CCC2(CC1)CN(C1CCc3cc(-c4ncccn4)ccc31)C2 (racemic)
Ascending by IC50, please. Rank them, then answer with their labels in that order.
c, b, a
